In this section, each of the molecules is paired with its reported pKi.
system tested: BRD4 BD1 protein (Homo sapiens (Human), UniProt O60885)
assay details: Fluorescence polarization binding affinity (Ki) with BRD4 BD1 protein
experimental context: fluorescence polarization; Ki calculated from IC50
pKi: −log10 of the molar value.
measurement label: pKi

>  <molecule>
Cc1nnn2c1-c1ccc(C3=CCNCC3)cc1C(Nc1cccc(CC(=O)O)c1)CC2 (stereo not drawn)

>  <comparison symbol>
<

>  <numeric result>
4.70

$$$$
>  <molecule>
Cc1nnn2c1-c1ccc(C3=CCN(C4CCC4)CC3)cc1C(Nc1ccc(F)c(Cl)c1)CC2 (stereo not drawn) [BI23, 2,2,2-trifluoroacetate]

>  <comparison symbol>
=

>  <numeric result>
5.97

$$$$
>  <molecule>
Cc1nnn2c1-c1ccc(-c3cnn(C)c3)cc1C(Nc1cccc3[nH]ccc13)CC2 (stereo not drawn)

>  <comparison symbol>
=

>  <numeric result>
7.34

$$$$
>  <molecule>
Cc1nnn2c1-c1ccc(C3=CCNCC3)cc1C(Nc1cccc(Cl)c1F)CC2 (stereo not drawn) [LC190, 2,2,2-trifluoroacetate]

>  <comparison symbol>
=

>  <numeric result>
6.23

$$$$
>  <molecule>
Cc1nnn2c1-c1ccc(C3=CCN(C)CC3)cc1C(Nc1cccc(Cl)c1)CC2 (stereo not drawn) [LD07, 2,2,2-trifluoroacetate]

>  <comparison symbol>
=

>  <numeric result>
6.11

$$$$
>  <molecule>
Cc1nnn2c1-c1ccc(C3=CCNCC3)cc1C(Nc1ccc(C#N)cc1)CC2 (stereo not drawn) [LC128, 2,2,2-trifluoroacetate]

>  <comparison symbol>
=

>  <numeric result>
6.33

$$$$
>  <molecule>
COC(=O)c1ccccc1NC1CCn2nnc(C)c2-c2ccc(-c3cnn(C)c3)cc21 (stereo not drawn)

>  <comparison symbol>
=

>  <numeric result>
7.02

$$$$
>  <molecule>
Cc1nnn2c1-c1ccc(C3=CCN(C4CCC4)CC3)cc1C(Nc1cccc(Cl)c1)CC2 (stereo not drawn) [BH159, 2,2,2-trifluoroacetate]

>  <comparison symbol>
=

>  <numeric result>
6.06

$$$$
>  <molecule>
Cc1nnn2c1-c1ccc(-c3cnn(C)c3)cc1C(Nc1ccccc1CCO)CC2 (stereo not drawn)

>  <comparison symbol>
=

>  <numeric result>
7.36

$$$$

----------
Parameter Ki: see the listing below.
system tested: BRD4 BD1 protein (Homo sapiens (Human), UniProt O60885)
assay details: Fluorescence polarization binding affinity (Ki) with BRD4 BD1 protein
experimental context: fluorescence polarization; Ki calculated from IC50

>  <molecule>
Cc1nnn2c1-c1ccc(C3=CCN(C4CCCC4)CC3)cc1C(Nc1ccc(F)c(Cl)c1)CC2 (stereo not drawn) [WYA10, 2,2,2-trifluoroacetate]

>  <Ki / nM>
719

$$$$
>  <molecule>
Cc1nnn2c1-c1ccc(C3=CCNC3)cc1C(Nc1cccc(O)c1)CC2 (stereo not drawn) [BJ183, 2,2,2-trifluoroacetate]

>  <Ki / nM>
939

$$$$
>  <molecule>
Cc1nnn2c1-c1ccc(C3=CCN(C(C)C)CC3)cc1[C@H](Nc1cccc(Cl)c1)CC2 [RE13 (R), 2,2,2-trifluoroacetate]

>  <Ki / nM>
1420

$$$$

----------
system tested: BRD4 BD2 protein (Homo sapiens (Human), UniProt O60885)
assay details: Fluorescence polarization binding affinity (Ki) with BRD4 BD2 protein
experimental context: fluorescence polarization; Ki calculated from IC50
measurement label: Ki

>  <molecule>
Cc1nnn2c1-c1ccc(C3=CCNCC3)cc1C(Nc1ccc3[nH]ccc3c1)CC2 (stereo not drawn) [WA82, 2,2,2-trifluoroacetate]

>  <result>
53.6 nM

$$$$
>  <molecule>
Cc1nnn2c1-c1ccc(-c3cnn(C)c3)cc1C(Nc1ccccc1C(=O)O)CC2 (stereo not drawn)

>  <result>
32.1 nM

$$$$
>  <molecule>
Cc1nnn2c1-c1ccc(C3=CCN(C(=O)C4CC4)CC3)cc1C(Nc1cccc(Cl)c1)CC2 (stereo not drawn)

>  <result>
7.64 nM

$$$$
>  <molecule>
Cc1nnn2c1-c1ccc(C3=CCNC3)cc1C(Nc1cccc(Cl)c1)CC2 (stereo not drawn) [BJ179, 2,2,2-trifluoroacetate]

>  <result>
25.9 nM

$$$$
>  <molecule>
Cc1nnn2c1-c1ccc(-c3cnn(C)c3)cc1C(Nc1ccccc1Cl)CC2 (stereo not drawn)

>  <result>
11.2 nM

$$$$
>  <molecule>
Cc1nnn2c1-c1ccc(-c3cnn(C)c3)cc1C(Nc1ccc(OCCO)cc1)CC2 (stereo not drawn)

>  <result>
13 nM

$$$$
>  <molecule>
Cc1nnn2c1-c1ccc(C3=CCNCC3)cc1C(Nc1cc(Cl)ccc1F)CC2 (stereo not drawn) [LD08, 2,2,2-trifluoroacetate]

>  <result>
62.3 nM

$$$$
>  <molecule>
Cc1nnn2c1-c1ccc(-c3cnn(C)c3)cc1C(Nc1cccc(Cl)c1)CC2 (stereo not drawn)

>  <result>
6.98 nM

$$$$
>  <molecule>
Cc1nnn2c1-c1ccc(C3=CCN(C(C)C)CC3)cc1C(Nc1ccc(F)c(Cl)c1)CC2 (stereo not drawn) [BI24, 2,2,2-trifluoroacetate]

>  <result>
86.4 nM

$$$$
>  <molecule>
Cc1nnn2c1-c1ccc(-c3cnn(C)c3)cc1C(Nc1cccc(N(C)C)c1)CC2 (stereo not drawn)

>  <result>
16.7 nM

$$$$
>  <molecule>
Cc1nnn2c1-c1ccc(C3=CCN(C4CCCCC4)CC3)cc1C(Nc1cccc(S(C)(=O)=O)c1)CC2 (stereo not drawn) [BI57, 2,2,2-trifluoroacetate]

>  <result>
147 nM

$$$$
>  <molecule>
Cc1nnn2c1-c1ccc(C3=CCNCC3)cc1C(N(C=O)c1cccc(Cl)c1)CC2 (stereo not drawn) [LC193, 2,2,2-trifluoroacetate]

>  <result>
698 nM

$$$$

----------
system tested: BRD4 BD2 protein (Homo sapiens (Human))
assay details: Fluorescence polarization binding affinity (Ki) with BRD4 BD2 protein
experimental context: fluorescence polarization; Ki calculated from IC50

>  <molecule>
COc1cccc(NC2CCn3nnc(C)c3-c3ccc(C4=CCN(C)CC4)cc32)c1 (stereo not shown) [BH23, 2,2,2-trifluoroacetate]

>  <units symbol>
nM

>  <Ki>
75.3

$$$$
>  <molecule>
Cc1nnn2c1-c1ccc(C3=CCN(C4CCC4)CC3)cc1C(Nc1cccc(C#N)c1)CC2 (stereo not shown) [BI36, 2,2,2-trifluoroacetate]

>  <units symbol>
nM

>  <Ki>
89.8

$$$$
>  <molecule>
Cc1nnn2c1-c1ccc(C3=CCNCC3)cc1C(Nc1ccccc1C#N)CC2 (stereo not shown) [RC116, 2,2,2-trifluoroacetate]

>  <units symbol>
nM

>  <Ki>
115

$$$$
>  <molecule>
COc1cccc(NC2CCn3nnc(C)c3-c3ccc(C4=CCNCC4)cc32)c1 (stereo not shown) [LC159, 2,2,2-trifluoroacetate]

>  <units symbol>
nM

>  <Ki>
65.4

$$$$
